src = patent US20160075653A1

# protocol notes: Measurement of log P values by HPLC on reversed phase columns (methods [a] pH 2.3, [b] pH 2.7, [c] pH 7.8)
# Type: physicochemical
# condition description: HPLC reversed phase, method [b] (pH 2.7)
measured endpoint: logP

Worked cases, logP given:
molecule	data value
O=C(N[C@@H]1CC[C@@H]1c1c(F)cccc1C(F)(F)F)c1ccc(Cl)cc1Cl (relative stereo)	3.93^[b]
Cc1nn(C)cc1C(=O)NC1CCCC1c1ccc(Cl)cc1 (stereo not drawn)	2.31^[b]

[in] Return reported logP; argument: CC(C)Oc1ccc([C@H]2CCC[C@H]2NC(=O)c2ccccc2I)cc1 (relative stereo)
[out] 3.92^[b]

---

# protocol notes: Measurement of log P values by HPLC on reversed phase columns (methods [a] pH 2.3, [b] pH 2.7, [c] pH 7.8)
# Assay type: physicochemical
# condition description: HPLC on reversed phase column, method [b], pH 2.7
measured endpoint: logP

[in] Request the reported logP associated with O=C(N[C@@H]1CC[C@@H]1c1cccc(F)c1C(F)(F)F)c1ccc(Cl)cc1 (relative stereo)
[out] 3.47^[b]

[in] Next entry: O=C(N[C@@H]1CC[C@@H]1c1cccc(F)c1C(F)(F)F)c1ccccc1[N+](=O)[O-] (relative stereo)
[out] 2.94^[b]

[in] Moving on to O=C(NC1CCC1c1ccccc1C(F)(F)F)c1nccnc1C(F)(F)F (stereo not drawn) [Example 687]
[out] 3.31^[b]

[in] Now consider O=C(N[C@@H]1CC[C@@H]1c1ccc(Br)cc1C(F)(F)F)c1nccnc1C(F)(F)F (relative stereo) and answer again.
[out] 3.72^[b]

---

# protocol notes: Measurement of log P values by HPLC on reversed phase columns (methods [a] pH 2.3, [b] pH 2.7, [c] pH 7.8)
# Assay type: physicochemical
# condition description: HPLC on reversed phase column, method [b], pH 2.7
Below, each entry is listed alongside its reported logP.

Previously resolved entries follow.
molecule	logP
O=C(N[C@@H]1CC[C@@H]1c1ccccc1C(F)(F)F)c1sccc1I (relative stereo) [Example 636]	3.83^[b]
O=C(N[C@@H]1CC[C@@H]1c1ccc(Cl)cc1C(F)(F)F)c1ccccc1I (relative stereo) [Example 678]	3.90^[b]
O=C(N[C@@H]1CC[C@H]1c1ccccc1C(F)(F)F)c1ncccc1Br (relative stereo) [Example 624]	3.34^[b]
O=C(N[C@@H]1CC[C@@H]1c1cccc(F)c1C(F)(F)F)c1sccc1I (relative stereo) [Example 628]	3.65^[b]
O=C(N[C@@H]1CC[C@H]1c1cccc(F)c1C(F)(F)F)c1ccc(Cl)cc1Cl (relative stereo) [Example 593]	3.50^[b]

[in] Please look up its logP: Cn1cc(C(=O)N[C@@H]2CC[C@H]2c2cccc(F)c2C(F)(F)F)c(C(F)F)n1 (relative stereo) [Example 644]
[out] 2.99^[b]

[in] Another molecule: O=C(N[C@@H]1CC[C@@H]1c1ccc(Cl)cc1C(F)(F)F)c1ccccc1Cl (relative stereo) [Example 666]
[out] 3.75^[b]

[in] Now give it for O=C(N[C@@H]1CC[C@H]1c1ccc(Cl)cc1C(F)(F)F)c1ccccc1 (relative stereo) [Example 679] too.
[out] 3.87^[b]

[in] What would you report for O=C(N[C@@H]1CC[C@@H]1c1cccc(F)c1C(F)(F)F)c1nccnc1Cl (relative stereo) [Compound 645] ?
[out] 2.78^[b]

[in] How about O=C(N[C@@H]1CC[C@H]1c1cccc(F)c1C(F)(F)F)c1ccccc1[N+](=O)[O-] (relative stereo) [Example 629] ?
[out] 3.18^[b]

---

Listing of recorded logP by entry.
# protocol notes: Measurement of log P values by HPLC on reversed phase columns (methods [a] pH 2.3, [b] pH 2.7, [c] pH 7.8)
# Format: physicochemical
# condition description: HPLC reversed phase, method [c] pH 7.8
# Procedure: Measurement of log P-Values: Measurement of log P Values was Performed According EEC Directive 79/831 Annex V.A8 by HPLC (High Performance Liquid Chromatography) on reversed phase columns with the following methods: ^[a] […]

Look over these answered cases.
compound	data value
CC(C)Oc1ccc([C@H]2CCC[C@H]2NC(=O)c2c(F)cccc2F)cc1 (relative stereo) [Example 329]	3.49^[c];
O=C(N[C@@H]1CCC[C@@H]1c1ccc(C(F)(F)F)cc1)c1nccnc1C(F)(F)F (relative stereo) [Example 330]	3.45^[c];
O=C(NC1CC1c1ccc(Cl)cc1)c1ccccc1F (stereo not shown) [Example 422]	3.07^[c];

The record that follows has no logP shown yet.
[in] Quick one: logP of O=C(NC1CC1c1ccc(Cl)cc1)c1c(F)cc(F)cc1F (stereo not shown) [Example 466] ?
[out] 2.78^[c];

---

Catalogue of logP readings, one per entry.
# protocol notes: Measurement of log P values by HPLC on reversed phase columns (methods [a] pH 2.3, [b] pH 2.7, [c] pH 7.8)
# Type: physicochemical
# condition description: method [b], HPLC reversed phase, pH 2.7

The following compounds have reported results that may help.
compound	logP
O=C(NC1CC1c1ccc(Cl)cc1Cl)c1ccccc1C(F)(F)F (centres unmarked)	3.73^[b]
Cn1cc(C(=O)N(C2CC2)C2CCCC2c2ccc(Cl)cc2Cl)c(C(F)F)n1 (centres unmarked)	4.23^[b]
Cn1cccc1C(=O)N[C@@H]1CCC[C@H]1c1ccc(F)c(F)c1 (relative stereo)	3.23^[b]
Cn1cc(C(=O)NC2CCCCC2c2ccccc2)c(C(F)F)n1 (centres unmarked) [Example 185]	2.76^[b]

Lab note: next compound to report on.
[in] So what does the record say about logP for Cn1cc(C(=O)NC2CC2c2ccccc2C(F)(F)F)c(C(F)F)n1 (centres unmarked) ?
[out] 2.64^[b]

---

# protocol notes: Measurement of log P values by HPLC on reversed phase columns (methods [a] pH 2.3, [b] pH 2.7, [c] pH 7.8)
# Format: physicochemical
# condition description: HPLC reversed phase, method [b] (pH 2.7)
measured endpoint: logP

Consider the reported logP for these molecules:
molecule	data value
O=C(NC1CCC1c1ccc(Cl)cc1Cl)c1cccc(Cl)c1 (stereo not shown) [Example 457]	3.87^[b]
O=C(N[C@@H]1CC[C@@H]1c1c(F)cccc1C(F)(F)F)c1ccccc1Cl (relative stereo) [Compound 553]	3.42^[b]

[in] # logP lookup, item O=C(N[C@@H]1C[C@@H]1c1ccc(Cl)cc1)c1ccccc1F (relative stereo) [Example 269]
[out] 2.79^[b]

[in] What do we get for O=C(NC1CCCCC1c1ccc(Cl)cc1Cl)c1cccnc1C(F)(F)F (stereo not shown) [Compound 414] ?
[out] 4.03^[b]

---

# protocol notes: Measurement of log P values by HPLC on reversed phase columns (methods [a] pH 2.3, [b] pH 2.7, [c] pH 7.8)
# Assay type: physicochemical
# condition description: HPLC reversed phase, method [b] (pH 2.7)
Entries annotated with measured logP

compound	logP
O=C(N[C@@H]1C[C@@H]1c1ccc(Cl)cc1Cl)c1ccccc1[N+](=O)[O-] (relative stereo)	2.94^[b]

[in] Could you tell me which logP is on file for O=C(NC1CCC1c1c(F)cccc1F)c1c(F)cccc1F (stereo not drawn) ?
[out] 2.83^[b]

[in] Queued: O=C(N[C@@H]1CC[C@@H]1c1ccc(F)cc1C(F)(F)F)c1cccnc1 (relative stereo)
[out] 2.18^[b]

---

# protocol notes: Measurement of log P values by HPLC on reversed phase columns (methods [a] pH 2.3, [b] pH 2.7, [c] pH 7.8)
# Format: physicochemical
# condition description: HPLC reversed phase, method [b] (pH 2.7)
List of logP values.

Known logP results, listed for orientation:
compound	logP
O=C(NC1CCCCC1c1ccccc1Br)c1ccccc1C(F)(F)F (centres unmarked) [Example 407]	4.10^[b]
O=C(NC1CCCC1c1ccc(Cl)cc1)c1c(F)cccc1F (centres unmarked) [Example 282]	3.28^[b]
O=C(N[C@@H]1C[C@@H]1c1ccc(Cl)cc1Cl)c1nccnc1Cl (relative stereo) [Compound 567]	2.75^[b]
O=C(NC1CCCCC1c1ccccc1Cl)c1cccnc1C(F)(F)F (centres unmarked) [Example 378]	3.45^[b]

[in] Could you share which logP value was measured for O=C(NC1CCC1c1c(F)cccc1F)c1ccc(Cl)cc1Cl (centres unmarked) [Example 441] ?
[out] 3.49^[b]

[in] What about this compound? O=C(N[C@@H]1CC[C@@H]1c1cc(F)ccc1C(F)(F)F)c1cccnc1Cl (relative stereo) [Compound 571]
[out] 2.75^[b]

[in] Also O=C(NC1CCCC1c1c(F)cccc1F)c1ccccc1I (centres unmarked) [Compound 322] , if possible.
[out] 3.40^[b]

---

Below, each entry is listed alongside its reported logP.
# protocol notes: Measurement of log P values by HPLC on reversed phase columns (methods [a] pH 2.3, [b] pH 2.7, [c] pH 7.8)
# Format: physicochemical
# condition description: HPLC on reversed phase column, method [b], pH 2.7

Here is how some compounds turned out for logP.
compound	logP
Cc1nc(C(F)(F)F)c(C(=O)N[C@@H]2CC[C@@H]2c2cccc(F)c2C(F)(F)F)s1 (relative stereo)	3.28^[b]
O=C(N[C@@H]1CC[C@H]1c1ccc(Cl)cc1C(F)(F)F)c1ccccc1[N+](=O)[O-] (relative stereo)	3.61^[b]
O=C(N[C@@H]1CC[C@H]1c1ccccc1C(F)(F)F)c1cccnc1 (relative stereo)	2.26^[b]

[in] Consider the compound O=C(N[C@@H]1CC[C@@H]1c1ccc(Cl)cc1C(F)(F)F)c1ccccc1[N+](=O)[O-] (relative stereo) and give its measured logP.
[out] 3.36^[b]

[in] And Cc1occc1C(=O)N[C@@H]1C[C@@H]1c1ccc(Cl)cc1Cl (relative stereo) ?
[out] 3.02^[b]
